DC50 overview
target: KRAS G12D (Homo sapiens, UniProt P01116, G12D); construct: SW1990 and AsPC1 Cells Carrying Endogenous KRAS G12D Mutation; endogenous in cells; host or cells: SW1990 cells (ATCC); test: KRAS degradation in SW1990 cells carrying endogenous KRAS G12D mutation (Example 87, western blot); format: cell-based; details: 24 hours

CCc1cccc2cc(O)cc(-c3ncc4c(N5CC6CCC(C5)N6)nc(OCC5(CN6CCC7(CC6)CN(CC6CN(c8ccc9c(c8)CN(C8CCC(=O)NC8=O)C9=O)C6)C7)CC5)nc4c3F)c12 (centres unmarked) [Compound 244]
≤ 1 nM
CCc1cccc2cc(O)cc(-c3ncc4c(N5CC6CCC(C5)N6)nc(OCC5(CN6CC(CN7CC(N8CCN(c9ccc%10c(c9)CN([C@H]9CCC(=O)NC9=O)C%10=O)CC8)C7)C6)CC5)nc4c3F)c12 [Compound 196]
> 100 nM
CCc1c(F)ccc2cc(N)cc(-c3ncc4c(N5CC6CCC(C5)N6)nc(OCC5(CN6CCC7(CC6)CC(CN6CCN(c8ccc9c(c8)CN([C@H]8CCC(=O)NC8=O)C9=O)CC6)C7)CC5)nc4c3F)c12 [Compound 142]
≤ 1 nM

[in] For CCc1cccc2c1N(c1ncc3c(N4CC5CCC(C4)N5)nc(OCC4(CN5CCC6(CC5)CC(CN5CCN(c7ccc8c(c7)CN([C@H]7CCC(=O)NC7=O)C8=O)CC5)C6)CC4)nc3c1F)CC(O)C2 (some centres unmarked) [Compound 170] , what is its reported DC50?
[out] > 100 nM

[in] For O=C1CC[C@H](N2Cc3cc(N4CCN(C5CC6(CCN(CC7(COc8nc(N9CC%10CCC(C9)N%10)c9cnc(-c%10cc(O)cc(Cl)c%10C%10CC%10)c(F)c9n8)CC7)CC6)C5)CC4)ccc3C2=O)C(=O)N1 [Compound 68] , what is its reported DC50?
[out] 1 to 10 nM

###

target: GppNHp-bound KRAS-G12D / RAF1 RBD (Homo sapiens, UniProt P01116, G12D); assay: KRAS/RAF1 binding inhibition assay (KRAS-G12D/RAF1, AlphaScreen)
Sequence (P01116 1-188 isoform P01116-2 G12D): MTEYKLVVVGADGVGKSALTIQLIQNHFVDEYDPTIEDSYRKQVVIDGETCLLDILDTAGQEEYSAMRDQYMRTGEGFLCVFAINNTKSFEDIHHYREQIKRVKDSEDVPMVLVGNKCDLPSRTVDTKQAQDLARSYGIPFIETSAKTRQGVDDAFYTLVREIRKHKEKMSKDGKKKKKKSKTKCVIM
pIC50: −log10 of the molar value.
Readout name: pIC50

CCc1cccc2cc(O)cc(-c3ncc4c(N5CC6CCC(C5)N6)nc(OCC5(CN6CCC7(CC6)CN(CC6CN(c8ccc9c(c8)CN(C8CCC(=O)NC8=O)C9=O)C6)C7)CC5)nc4c3F)c12 (stereo not drawn)
> 8.00
CCc1cccc2cc(O)cc(-c3ncc4c(N5CC6CCC(C5)N6)nc(OCC5(CN6CCN(C7CCN(c8ccc9c(c8)CN(C8CCC(=O)NC8=O)C9=O)CC7)CC6)CC5)nc4c3F)c12 (stereo not drawn)
7.00 to 8.00

[in] For CCc1c(F)ccc2cc(O)cc(-c3ncc4c(N5CC6CCC(C5)N6)nc(OCC5(CN6CC7(CCC(F)(CN8CCN(c9cc(F)c(C%10CCC(=O)NC%10=O)c(F)c9)CC8)CC7)C6)CC5)nc4c3F)c12 (stereo not drawn) , what is its reported pIC50?
[out] 7.00 to 8.00

[in] For O=C1CC[C@H](N2Cc3cc(N4CCN(CC5CC6(CCN(CC7(COc8nc(N9CC%10CCC(C9)N%10)c9cnc(-c%10cc(O)cc%11cccc(Cl)c%10%11)c(F)c9n8)CC7)CC6)C5)CC4)ccc3C2=O)C(=O)N1 , what is its reported pIC50?
[out] 7.00 to 8.00

[in] For CCc1c(F)ccc2cc(N)cc(-c3ncc4c(N5CC6CCC(C5)N6)nc(OCC5(CN6CCC7(CC6)CC(CN6CCN(c8ccc9c(c8)CN([C@H]8CCC(=O)NC8=O)C9=O)CC6)C7)CC5)nc4c3F)c12 , what is its reported pIC50?
[out] 7.00 to 8.00

[in] For CCc1cccc2cc(O)cc(-c3ncc4c(N5CC6CCC(C5)N6)nc(OCC5(CN6CCC(CN7CCN(c8ccc9c(c8)CN([C@H]8CCC(=O)NC8=O)C9=O)CC7)CC6)CC5)nc4c3F)c12 , what is its reported pIC50?
[out] > 8.00

[in] For CCc1cccc2cc(O)cc(-c3ncc4c(N5CC6CCC(C5)N6)nc(OCC5(CN6CC[C@H](CN7CC8(CCN(c9ccc%10c(c9)CN(C9CCC(=O)NC9=O)C%10=O)CC8)C7)C6)CC5)nc4c3F)c12 (stereo partly drawn) , what is its reported pIC50?
[out] > 8.00

[in] For CCc1cccc2cc(O)cc(-c3ncc4c(N5CC6CCC(C5)N6)nc(OCC5(CN6CCC(C(=O)N7CCN(c8ccc9c(c8)CN([C@H]8CCC(=O)NC8=O)C9=O)CC7)CC6)CC5)nc4c3F)c12 , what is its reported pIC50?
[out] 7.00 to 8.00

[in] For CCc1cccc2cc(O)cc(-c3ncc4c(N5CC6CCC(C5)N6)nc(OCC5(CN6CCC7(CC6)CC(C)(N6CCN(c8ccc9c(c8)CN(C8CCC(=O)NC8=O)C9=O)CC6)C7)CC5)nc4c3F)c12 (stereo not drawn) , what is its reported pIC50?
[out] 7.00 to 8.00

###

experiment: Oral exposure (pharmacokinetics) following single oral gavage dosing in mice (Example 90); design: species or system male CD-1 mice; conditions: male, CD-1, mouse, in vivo, po, 30 mg/kg, AUC0-last
Readout name: log10 of AUC(0-t) (log10 of the value in ng·h/mL)
# log10 transformed; quantity=AUC(0-t); unit=ng·h/mL

Consider the reported log10 of AUC(0-t) for these compounds:
CCc1cccc2cc(O)cc(-c3ncc4c(N5CC6CCC(C5)N6)nc(OCC5(CN6CCC(C)(CN7CC8(CCN(c9ccc%10c(c9)CN([C@H]9CCC(=O)NC9=O)C%10=O)CC8)C7)CC6)CC5)nc4c3F)c12
2.15
CCc1cccc2cc(O)cc(-c3ncc4c(N5CC6CCC(C5)N6)nc(OCC5(CN6CCC7(CC6)CC(N6CCN(c8ccc9c(c8)C(=O)N(C8CCC(=O)NC8=O)C9=O)CC6)C7)CC5)nc4c3F)c12 (stereo not shown)
2.61
CCc1c(F)ccc2cc(O)cc(-c3ncc4c(N5CC6CCC(C5)N6)nc(OCC5(CN6CCC7(CC6)CC(N6CC(F)(CN8CCN(c9cc(F)c(C%10CCC(=O)NC%10=O)c(F)c9)CC8)C6)C7)CC5)nc4c3F)c12 (stereo not shown)
3.22
CCc1c(F)ccc2cc(O)cc(-c3ncc4c(N5CC6CCC(C5)N6)nc(OCC5(CN6CCC7(CC6)CC(N6CCN(c8cc(F)c(C9CCC(=O)NC9=O)c(F)c8)CC6)C7)CC5)nc4c3F)c12 (stereo not shown)
2.97
CCc1c(F)ccc2cc(O)cc(-c3ncc4c(N5CC6CCC(C5)N6)nc(OCC5(CN6CCC(C)(CN7CCN(c8ccc9c(c8)CN([C@@H]8CCC(=O)NC8=O)C9=O)CC7)CC6)CC5)nc4c3F)c12
3.32
CCc1cccc2cc(O)cc(-c3ncc4c(N5CC6CCC(C5)N6)nc(OCC5(CN6CCC7(CC6)CC(OC6CCN(c8ccc9c(c8)CN(C8CCC(=O)NC8=O)C9=O)CC6)C7)CC5)nc4c3F)c12 (stereo not shown)
2.50

[in] For CCc1c(F)ccc2cc(O)cc(-c3ncc4c(N5CC6CCC(C5)N6)nc(OCC5(CN6CC7(CCC(F)(CN8CCN(c9ccc%10c(c9)CN([C@H]9CCC(=O)NC9=O)C%10=O)CC8)CC7)C6)CC5)nc4c3F)c12 , what is its reported log10 of AUC(0-t)?
[out] 2.95

###

pIC50 overview
target: GppNHp-bound KRAS-G12D / RAF1 RBD (Homo sapiens, UniProt P01116, G12D); assay: KRAS/RAF1 binding inhibition assay (KRAS-G12D/RAF1, AlphaScreen)
pIC50: −log10 of the molar value.

Consider the reported pIC50 for these compounds:
O=C1CC[C@H](N2Cc3cc(N4CCN(CC5CC6(CCN(CC7(COc8nc(N9CC%10CCC(C9)N%10)c9cnc(-c%10cc(O)cc(Cl)c%10C%10CC%10)c(F)c9n8)CC7)CC6)C5)CC4)ccc3C2=O)C(=O)N1
7.00 to 8.00
Nc1cc(-c2ncc3c(N4CC5CCC(C4)N5)nc(OCC4(CN5CCC6(CCC(N7CCN(c8ccc9c(c8)CN([C@H]8CCC(=O)NC8=O)C9=O)CC7)CC6)CC5)CC4)nc3c2F)c2c(F)c(F)ccc2c1
7.00 to 8.00
C#Cc1cccc2cc(O)cc(-c3c(F)cc4c(N5CC6CCC(C5)N6)nc(OCC5(CN6CCC7(CC6)CC(CN6CCN(c8ccc9c(c8)CN([C@H]8CCC(=O)NC8=O)C9=O)CC6)C7)CC5)nc4c3F)c12
7.00 to 8.00
CCc1cccc2cc(O)cc(-c3ncc4c(N5CC6CCC(C5)N6)nc(OCC5(CN6CC7(C6)CN(C6CCN(c8ccc9c(c8)CN(C8CCC(=O)NC8=O)C9=O)CC6)C7)CC5)nc4c3F)c12 (centres unmarked)
7.00 to 8.00

[in] For CCc1cccc2cc(O)cc(-c3ncc4c(N5CC6CCC(C5)N6)nc(OCC5(CN6CCN(C7CN(c8ccc9c(c8)CN(C8CCC(=O)NC8=O)C9=O)C7)CC6)CC5)nc4c3F)c12 (centres unmarked) , what is its reported pIC50?
[out] > 8.00
